Data credit: ChEMBL document CHEMBL5241092

System: Pseudomonas aeruginosa
Assay info: Antibacterial activity against Pseudomonas aeruginosa
Type: functional
// reported MIC per item

{"Entry smiles": "COc1c(N2C[C@H]3CCCN(Cc4ccc(F)cc4)[C@H]3C2)c(F)cc2c(=O)c(C(=O)O)cn(C3CC3)c12", "MIC": "< 2.39 µg/mL"}
{"Entry smiles": "COc1ccc(C(=O)N2CCC[C@@H]3CN(c4c(F)cc5c(=O)c(C(=O)O)cn(C6CC6)c5c4OC)C[C@@H]32)cc1", "MIC": "< 1.23 µg/mL"}
{"Entry smiles": "CCn1cc(C(=O)O)c(=O)c2cc(F)c(N3CCNCC3)cc21", "MIC": "< 0.24 µg/mL"}
{"Entry smiles": "COc1c(N2C[C@H]3CCCN(Cc4ccc(Cl)cc4)[C@H]3C2)c(F)cc2c(=O)c(C(=O)O)cn(C3CC3)c12", "MIC": "< 2.39 µg/mL"}
{"Entry smiles": "COc1c(N2C[C@H]3CCCN(Cc4ccc(C)cc4)[C@H]3C2)c(F)cc2c(=O)c(C(=O)O)cn(C3CC3)c12", "MIC": "< 2.39 µg/mL"}
{"Entry smiles": "COc1c(N2C[C@H]3CCCN(S(=O)(=O)c4ccc(Br)cc4)[C@H]3C2)c(F)cc2c(=O)c(C(=O)O)cn(C3CC3)c12", "MIC": "< 2.42 µg/mL"}
{"Entry smiles": "COc1ccc(S(=O)(=O)N2CCC[C@@H]3CN(c4c(F)cc5c(=O)c(C(=O)O)cn(C6CC6)c5c4OC)C[C@@H]32)cc1", "MIC": "< 2.42 µg/mL"}
{"Entry smiles": "COc1c(N2CCN(C(=O)c3ccc4cccc(O)c4n3)CC2)c(F)cc2c(=O)c(C(=O)O)cn(C3CC3)c12", "MIC": "≤ 0.06 µg/mL"}

----------
Test system: Staphylococcus aureus
Assay info: Antibacterial activity against Staphylococcus aureus
Format: functional
// reported MIC per item

{"Molecule": "COc1c(N2C[C@H]3CCCN(C(=O)c4ccc([N+](=O)[O-])cc4)[C@H]3C2)c(F)cc2c(=O)c(C(=O)O)cn(C3CC3)c12", "MIC": "≤ 1.23 µg/mL"}
{"Molecule": "O=C(O)c1cn(-c2ccc(F)cc2)c2cc(N3CCN(C/C(=N/O)c4ccccc4)CC3)c(F)cc2c1=O", "MIC": "< 0.125 µg/mL"}
{"Molecule": "CCn1cc(C(=O)O)c(=O)c2cc(F)c(N3CCNCC3)cc21", "MIC": "< 0.24 µg/mL"}
{"Molecule": "COc1c(N2C[C@H]3CCCN(C(=O)c4ccc(Br)cc4)[C@H]3C2)c(F)cc2c(=O)c(C(=O)O)cn(C3CC3)c12", "MIC": "≤ 1.23 µg/mL"}
{"Molecule": "O=C(O)c1cn(-c2ccc(F)cc2)c2cc(N3CCNCC3)c(F)cc2c1=O", "MIC": "< 0.125 µg/mL"}
{"Molecule": "COc1c(N2C[C@H]3CCCN(C(=O)c4ccc(C)cc4)[C@H]3C2)c(F)cc2c(=O)c(C(=O)O)cn(C3CC3)c12", "MIC": "≤ 1.23 µg/mL"}
{"Molecule": "COc1c(N2C[C@H]3CCCN(C(=O)c4ccc(Cl)cc4)[C@H]3C2)c(F)cc2c(=O)c(C(=O)O)cn(C3CC3)c12", "MIC": "≤ 1.23 µg/mL"}
{"Molecule": "COc1c(N2C[C@H]3CCCN(S(=O)(=O)c4ccc(Br)cc4)[C@H]3C2)c(F)cc2c(=O)c(C(=O)O)cn(C3CC3)c12", "MIC": "< 2.42 µg/mL"}
{"Molecule": "COc1c(N2C[C@H]3CCCN(Cc4ccc(Br)cc4)[C@H]3C2)c(F)cc2c(=O)c(C(=O)O)cn(C3CC3)c12", "MIC": "< 2.39 µg/mL"}
{"Molecule": "COc1c(N2C[C@H]3CCCN(C(=O)c4ccccc4)[C@H]3C2)c(F)cc2c(=O)c(C(=O)O)cn(C3CC3)c12", "MIC": "< 1.23 µg/mL"}
{"Molecule": "COc1ccc(S(=O)(=O)N2CCC[C@@H]3CN(c4c(F)cc5c(=O)c(C(=O)O)cn(C6CC6)c5c4OC)C[C@@H]32)cc1", "MIC": "< 2.42 µg/mL"}
{"Molecule": "O=C(O)c1cn(C2CC2)c2cc(N3CCN(CN4c5ccccc5C(=O)N(c5ccc(Cl)cc5)C4c4ccccc4)CC3)c(F)cc2c1=O (stereo unspecified)", "MIC": "0.1 µg/mL"}
{"Molecule": "COc1c(N2C[C@H]3CCCN(C(=O)c4ccc(F)cc4)[C@H]3C2)c(F)cc2c(=O)c(C(=O)O)cn(C3CC3)c12", "MIC": "≤ 1.23 µg/mL"}
{"Molecule": "COc1c(N2C[C@H]3CCCN(Cc4ccc([N+](=O)[O-])cc4)[C@H]3C2)c(F)cc2c(=O)c(C(=O)O)cn(C3CC3)c12", "MIC": "< 2.39 µg/mL"}
{"Molecule": "COc1c(N2C[C@H]3CCCN(S(=O)(=O)c4ccc(F)cc4)[C@H]3C2)c(F)cc2c(=O)c(C(=O)O)cn(C3CC3)c12", "MIC": "< 2.42 µg/mL"}
{"Molecule": "COc1c(N2C[C@H]3CCCN(Cc4ccccc4)[C@H]3C2)c(F)cc2c(=O)c(C(=O)O)cn(C3CC3)c12", "MIC": "< 2.39 µg/mL"}

----------
System: Staphylococcus aureus
Assay info: Antibacterial activity against Staphylococcus aureus
Assay type: functional
// reported MIC per item

{"Compound": "COc1c(N2C[C@H]3CCCN(S(=O)(=O)c4ccc(Cl)cc4)[C@H]3C2)c(F)cc2c(=O)c(C(=O)O)cn(C3CC3)c12", "MIC": "< 2.42 µg/mL"}
{"Compound": "CCn1c(S)nnc1CN1CCN(c2cc3c(cc2F)c(=O)c(C(=O)O)cn3CC)CC1", "MIC": "< 0.24 µg/mL"}
{"Compound": "COc1c(N2CCN(C(=O)Cn3cc(CN4C(=O)C(=O)c5cc(F)ccc54)nn3)C(C)C2)c(F)cc2c(=O)c(C(=O)O)cn(C3CC3)c12 (stereo not drawn)", "MIC": "≤ 0.03 µg/mL"}

----------
// reported MIC per item
System: Pseudomonas aeruginosa
Assay info: Antibacterial activity against Pseudomonas aeruginosa
Format: functional
Outcome measure: MIC

{"Entry smiles": "COc1c(N2C[C@H]3CCCN(Cc4ccc([N+](=O)[O-])cc4)[C@H]3C2)c(F)cc2c(=O)c(C(=O)O)cn(C3CC3)c12", "Target of assay": "Pseudomonas aeruginosa", "Outcome measure": "MIC", "Experimental value": "< 2.39 µg/mL"}
{"Entry smiles": "COc1c(N2C[C@H]3CCCN(C(=O)c4ccc(F)cc4)[C@H]3C2)c(F)cc2c(=O)c(C(=O)O)cn(C3CC3)c12", "Target of assay": "Pseudomonas aeruginosa", "Outcome measure": "MIC", "Experimental value": "< 1.23 µg/mL"}
{"Entry smiles": "COc1c(N2C[C@H]3CCCN(Cc4ccc(Br)cc4)[C@H]3C2)c(F)cc2c(=O)c(C(=O)O)cn(C3CC3)c12", "Target of assay": "Pseudomonas aeruginosa", "Outcome measure": "MIC", "Experimental value": "< 2.39 µg/mL"}
